Entries and their measured GI50 follow.
- Tested on: CAKI-1 renal
- PROTOCOL DESCRIPTION: NCI tumour cell line growth inhibition, 48 h
EXPERIMENTAL READOUT: GI50

COMPOUND	OBSERVED MEASUREMENT
COc1ccccc1CNC(=O)C1c2ccccc2C(=O)N(CC(C)C)C1c1cccs1 (stereo not given)	18.1 µM
CN(C)CCOC1(Cc2ccc(Cl)cc2Cl)CCC(C(C)(C)C)CC1 (stereo not given)	5.18 µM
COc1ccc2c(c1OC)-c1c(c3ccc([N+](=O)[O-])cc3c(=O)n1CCCN=[N+]=[N-])C2=O	2.55 µM
O=C1/C(=C/c2ccc([N+](=O)[O-])s2)Oc2ccccc21	2.2 µM
NC(N)=N/N=C/c1cccc(Cl)c1Cl	6.62 µM
